Target: human IBAT (Homo sapiens, UniProt Q12908)
Construct: expressed in transfected cells; host or cells: HEK293
Sequence (Q12908 1-348): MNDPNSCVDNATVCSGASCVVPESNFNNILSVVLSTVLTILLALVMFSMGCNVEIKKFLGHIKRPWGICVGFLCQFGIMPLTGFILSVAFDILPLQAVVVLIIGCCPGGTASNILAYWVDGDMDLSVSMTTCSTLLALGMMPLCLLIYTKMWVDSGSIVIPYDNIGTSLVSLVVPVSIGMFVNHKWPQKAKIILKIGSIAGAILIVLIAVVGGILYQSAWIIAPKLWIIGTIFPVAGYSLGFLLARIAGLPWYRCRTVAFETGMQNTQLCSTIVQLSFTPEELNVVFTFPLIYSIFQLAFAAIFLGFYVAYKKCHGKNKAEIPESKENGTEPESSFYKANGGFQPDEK
Assay: IBAT counter screen, [3H]taurocholic acid uptake in IBAT-transfected HEK293 cells
Assay type: cell-based
Conditions: read-out: pEC50 human IBAT (converted)
outcome measure: EC50

Field EC50 (system: human IBAT (Homo sapiens, UniProt Q12908)) for entry O=C([C@@H]1C[C@@H](O)CN1Cc1cc(Cl)ccc1Cl)N1CCN(C2CC2)c2ccccc21 = > 25.1 µM

====

target: endogenously expressed TGR5 in NCI H716 (Homo sapiens, UniProt Q8TDU6); construct: human caecum carcinoma cell line NCI-H716 which endogenously expresses human TGR5; endogenous in cells; host or cells: NCI-H716; assay: Cell-based TGR5 assay, NCI-H716 cells endogenously expressing human TGR5, cAMP by HTRF; conditions: 30 min at 37 C, 22 nM to 50 μM, read-out: pEC50 endogenously expressed TGR5 in NCI H716 (converted)
Sequence (Q8TDU6 whole entry): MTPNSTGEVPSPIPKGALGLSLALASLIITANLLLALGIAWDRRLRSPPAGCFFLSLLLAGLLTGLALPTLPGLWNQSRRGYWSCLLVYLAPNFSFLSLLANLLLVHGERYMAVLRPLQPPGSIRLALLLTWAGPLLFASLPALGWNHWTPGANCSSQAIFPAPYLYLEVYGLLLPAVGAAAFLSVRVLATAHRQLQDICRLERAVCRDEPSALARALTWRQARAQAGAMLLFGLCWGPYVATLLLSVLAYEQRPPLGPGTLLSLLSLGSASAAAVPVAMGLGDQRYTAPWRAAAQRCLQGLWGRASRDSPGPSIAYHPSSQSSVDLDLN
Listed here: items and their measured EC50.

// known answers, use as guide
COc1ccccc1N(C)C(=O)C1(NCc2cc(Cl)ccc2Cl)CC1; < 0.1 µM
O=C(N1CCN(C2CC2)c2ccccc21)C1(NCc2cc(Cl)ccc2Cl)COC1; 0.126 to 1 µM
CC1(C)C[C@@H](C(=O)N2CCN(C3CC3)c3ccccc32)N(Cc2cc(Cl)ccc2Cl)C1; 1.26 to 50.1 µM
O=C(CCc1cc(Cl)c(COC2(C(=O)N3CCN(C4CC4)c4ccccc43)CC2)cc1Cl)NC[C@H](O)[C@@H](O)[C@H](O)[C@H](O)CO; < 0.1 µM

The reported EC50 of the compound CN(C[C@H](O)[C@@H](O)[C@H](O)[C@H](O)CO)C(=O)CCc1cc(Cl)c(OCC2(C(=O)N3CCN(C4CC4)c4ccccc43)CC2)cc1Cl was 1.26 to 50.1 µM

====

Listed here: items and their measured concentration at 8 h.
assay: Compound plasma concentration, LC-MS/MS, 8 h post dose; type: in vivo; details: male, C57BL/6, mouse, mice, 30 mg/kg, plasma, read-out: Mean Example Plasma Concentration

CN(C(=O)C1(OCc2cc(Cl)c(CCCNC(=O)NC[C@H](O)[C@@H](O)[C@H](O)[C@H](O)CO)cc2Cl)CC1)c1ccccc1OC1CC1 [Example 96]; < 2 ng/mL
CN(C[C@H](O)[C@@H](O)[C@H](O)[C@H](O)CO)C(=O)NCCCCOc1cc(Cl)c(CN2CSC[C@H]2C(=O)N2CCN(C3CC3)c3ccccc32)cc1Cl [Example 191]; < 0.5 ng/mL

Kindly consider the entry below.
The reported concentration at 8 h of the molecule O=C(O)CNC(=O)[C@H](CSSC[C@H](NC(=O)CC[C@H](NC(=O)CCCCc1cc(Cl)c(CN2CSC[C@H]2C(=O)N2CCN(C3CC3)c3ccccc32)cc1Cl)C(=O)O)C(=O)NCC(=O)O)NC(=O)CC[C@H](NC(=O)CCCCc1cc(Cl)c(CN2CSC[C@H]2C(=O)N2CCN(C3CC3)c3ccccc32)cc1Cl)C(=O)O [Example 241] was < 10 ng/mL

Taken from patent US20150148311A1.
